Here, each record is paired with measured Visual toxicity data.
- Test system: Differentiated normal human bronchial epithelial (dNHBE) cells
- testSummary: dNHBE assay: toxicity evaluated microscopically
- Type: cell-based
- Design: unit not given here
reportedMetric: Visual toxicity

>>> result("CNc1nc(N)nc2c1ncn2[C@@H]1O[C@](C)(CO[P@@](=O)(N[C@@H](C)C(=O)OC(C)C)Oc2ccccc2)[C@@H](O)[C@H]1F [Compound AC]")
">1.4"
>>> result("CC(C)OC(=O)[C@H](C)N[P@](=O)(OC[C@@]1(C)O[C@@H](n2cnc3c(N(C)C)nc(N)nc32)[C@H](F)[C@@H]1O)Oc1ccccc1 [AA]")
">167"
>>> result("CC[C@]1(CO)O[C@@H](n2cnc3c(N(C)C)nc(N)nc32)[C@@H](F)[C@@H]1O [Compound U]")
">294"
>>> result("CNc1nc(N)nc2c1ncn2[C@@H]1O[C@](C)(CO[P@@](=O)(N[C@@H](C)C(=O)OC(C)C)Oc2ccccc2)[C@@H](O)[C@@H]1F [AK]")
">1.7"
>>> result("COc1nc(N(C)C)c2ncn([C@@H]3O[C@](C)(CO[P@@](=O)(N[C@@H](C)C(=O)OC(C)C)Oc4ccccc4)[C@@H](O)[C@H]3F)c2n1 [AF]")
">16"
>>> result("CN(C)c1nc(N)nc2c1ncn2[C@@H]1O[C@@](CO)(CCl)[C@@H](O)[C@H]1F [Compound K]")
">277"
>>> result("CNc1nc(F)nc2c1ncn2[C@@H]1O[C@](CCl)(CO[P@@](=O)(N[C@@H](C)C(=O)OC(C)C)Oc2ccccc2)[C@@H](O)[C@H]1F [AJ]")
">1.6"
>>> result("CNc1nc(N)nc2c1ncn2[C@@H]1O[C@](C)(CO[P@@](=O)(N[C@@H](C)C(=O)OC(C)C)Oc2ccccc2)[C@@H](O)[C@H]1F [Compound AB]")
">17"
